test_protocol: MTT cell viability assay
Assay type: cell-based, human
measurement_conditions: human, HeLa cells, 10 µM, read-out: percentage of viable cells remaining
From the text: For this purpose, the MTT cell viability assay was used. The MTT assay is a standard cell viability assay, measuring mitochondrial activity in live (metabolically viable) cells. Metabolically active mitochondria in viable cells have the ability to reduce MTT to coloured formazan crystals that can be quantitated spectrophotometrically. The presence of a toxic agent will reduce cell viability and thus limit the reduction of MTT to the formazan product. For this study, HeLa cells were selected. […]
Catalogue of viability at 24 h, 10 µM values
Enter your answer as a number in %; do not include the unit.

>>> reported("N[C@@H](Cc1ccc(O)c(O)c1)C(=O)O")
105

Answer with reported viability at 24 h, 10 µM of N[C@@H](Cc1ccc(O)c(O)c1)C(=O)NCCNC(=O)c1ccc(Cl)cn1 [L-dopa–lazabemide prodrug]
52.1

====

test_protocol: Solubility in water and potassium phosphate buffer
Type: physicochemical
measurement_conditions: water and potassium phosphate buffer, 37 °C, aqueous buffer, thermodynamic from solid; water and buffer pH 7.4; read-out: minimum solubility
measurement_type: solubility at 24 h

Tell me measured solubility at 24 h for N[C@@H](Cc1ccc(O)c(O)c1)C(=O)NCCNC(=O)c1ccc(Cl)cn1 [L-dopa–lazabemide prodrug] please.
≥ 6000 µg/mL

====

test_protocol: Tissue stability, rat liver homogenate
Assay type: in vitro ADME
measurement_conditions: 37 °C, approximate, read-out: t½
measurement_type: half-life at 200 µM

Give the value of half-life at 200 µM reported for the following: N[C@@H](Cc1ccc(O)c(O)c1)C(=O)NCCNC(=O)c1ccc(Cl)cn1 [L-dopa–lazabemide prodrug]
~1 h

====

test_protocol: physchem
measurement_conditions: pH 7.4, LogD
measurement_type: logD
Please respond with just the number, no unit label.

Quickly give me recorded logD for NCCNC(=O)c1ccc(Cl)cn1 [Lazabemide]
-0.68

====

# Papp at 5 h, 200 µM annotations
test_protocol: in vitro
measurement_conditions: PAMPA, pH 4.7
Please reply with the bare figure in ×10⁻⁶ cm/s and do not write the unit itself.

Previously resolved entries follow.
>>> reported("NCCNC(=O)c1ccc(Cl)cn1 [Lazabemide]")
0.0871
>>> reported("N[C@@H](Cc1ccc(O)c(O)c1)C(=O)O")
0.00891

Now examine the next entry.
Using the record for N[C@@H](Cc1ccc(O)c(O)c1)C(=O)NCCNC(=O)c1ccc(Cl)cn1 [L-dopa–lazabemide prodrug] , state its measured Papp at 5 h, 200 µM.
0.0155

====

test_protocol: in vitro
measurement_conditions: PAMPA, pH 6.4
Papp at 5 h, 200 µM: recorded values
Report the value in nm/s with no unit label.

>>> reported("N[C@@H](Cc1ccc(O)c(O)c1)C(=O)NCCNC(=O)c1ccc(Cl)cn1 [L-dopa–lazabemide prodrug]")
0.195
>>> reported("N[C@@H](Cc1ccc(O)c(O)c1)C(=O)O")
0.024

// switching to the query compound
Look up Papp at 5 h, 200 µM of NCCNC(=O)c1ccc(Cl)cn1 [Lazabemide] and report it.
3.55

====

test_protocol: in vitro
measurement_conditions: PAMPA, pH 5.7
Each entry below carries its recorded Papp at 5 h, 200 µM.
Answers without a unit are incomplete; give the number and then its unit.

>>> reported("NCCNC(=O)c1ccc(Cl)cn1 [Lazabemide]")
"0.148 ×10⁻⁶ cm/s"
>>> reported("N[C@@H](Cc1ccc(O)c(O)c1)C(=O)NCCNC(=O)c1ccc(Cl)cn1 [L-dopa–lazabemide prodrug]")
"0.0195 ×10⁻⁶ cm/s"

For the compound `N[C@@H](Cc1ccc(O)c(O)c1)C(=O)O` , report Papp at 5 h, 200 µM.
0.00603 ×10⁻⁶ cm/s

====

test_protocol: in vitro
measurement_conditions: PAMPA, pH 7.4
Quick list: Papp at 5 h, 200 µM per entry.
Entry rule: numbers only, all in ×10⁻⁶ cm/s.

>>> reported("N[C@@H](Cc1ccc(O)c(O)c1)C(=O)O [L-Dopa]")
0.00676
>>> reported("NCCNC(=O)c1ccc(Cl)cn1 [Lazabemide]")
1.62

In the following, a different compound is considered.
Provide measured Papp at 5 h, 200 µM value, entry: N[C@@H](Cc1ccc(O)c(O)c1)C(=O)NCCNC(=O)c1ccc(Cl)cn1 [L-dopa–lazabemide prodrug]
0.0295

====

test_protocol: Shake-flask logD determination (n-octanol/buffer)
measurement_conditions: n-octanol/potassium phosphate buffer, pH 7.4, LogD, pH 7.4; n-octanol/potassium phosphate buffer 100 mM
measurement_type: logD
Write no unit; give the number alone.

Tell us which logD value is on record for N[C@@H](Cc1ccc(O)c(O)c1)C(=O)NCCNC(=O)c1ccc(Cl)cn1 [L-dopa–lazabemide prodrug]
0.199

====

test_protocol: MTT cell viability assay
Type: cell-based, human
measurement_conditions: human, HeLa cells, 1 µM, read-out: percentage of viable cells remaining
The following molecules are listed with their measured viability at 24 h, 1 µM values.

>>> reported("N[C@@H](Cc1ccc(O)c(O)c1)C(=O)O")
"102%"

Kindly indicate its recorded viability at 24 h, 1 µM. Item: N[C@@H](Cc1ccc(O)c(O)c1)C(=O)NCCNC(=O)c1ccc(Cl)cn1 [L-dopa–lazabemide prodrug]
112%

====

viability at 24 h, 100 µM for assorted molecules
test_protocol: MTT cell viability assay
Assay type: cell-based, human
measurement_conditions: human, HeLa cells, 100 µM, read-out: percentage of viable cells remaining
Give just the number in %; leave the unit off.

>>> reported("N[C@@H](Cc1ccc(O)c(O)c1)C(=O)NCCNC(=O)c1ccc(Cl)cn1 [L-dopa–lazabemide prodrug]")
35

Now examine the next entry.
Complete the entry with viability at 24 h, 100 µM for N[C@@H](Cc1ccc(O)c(O)c1)C(=O)O [L-Dopa]
79
